From: ChEMBL document CHEMBL1125831

I'd be grateful if you could share measured MTC for these entries.
procedure text: In vitro toxicity on uninfected Phytohemagglutininin stimulated human PBM cell
Assay type: cell-based

Q. Name the recorded MTC for CN(C)CCNc1cc(-c2ccco2)nc2ccccc12 .
A. > 1 µM

Q. Would you mind doing CN1CCN(c2cc(-c3cccnc3)nc3ccccc23)CC1 as well?
A. > 100 µM

Q. Would you mind doing CN(C)CCNc1cc(-c2cccnc2)nc2ccccc12 as well?
A. > 100 µM

Q. Would you mind doing CC(C)Nc1cc(-c2ccccc2)nc2ccccc12 as well?
A. > 100 µM
